Biological target: Extracellular calcium-sensing receptor (Homo sapiens)
Sequence (P41180 whole entry): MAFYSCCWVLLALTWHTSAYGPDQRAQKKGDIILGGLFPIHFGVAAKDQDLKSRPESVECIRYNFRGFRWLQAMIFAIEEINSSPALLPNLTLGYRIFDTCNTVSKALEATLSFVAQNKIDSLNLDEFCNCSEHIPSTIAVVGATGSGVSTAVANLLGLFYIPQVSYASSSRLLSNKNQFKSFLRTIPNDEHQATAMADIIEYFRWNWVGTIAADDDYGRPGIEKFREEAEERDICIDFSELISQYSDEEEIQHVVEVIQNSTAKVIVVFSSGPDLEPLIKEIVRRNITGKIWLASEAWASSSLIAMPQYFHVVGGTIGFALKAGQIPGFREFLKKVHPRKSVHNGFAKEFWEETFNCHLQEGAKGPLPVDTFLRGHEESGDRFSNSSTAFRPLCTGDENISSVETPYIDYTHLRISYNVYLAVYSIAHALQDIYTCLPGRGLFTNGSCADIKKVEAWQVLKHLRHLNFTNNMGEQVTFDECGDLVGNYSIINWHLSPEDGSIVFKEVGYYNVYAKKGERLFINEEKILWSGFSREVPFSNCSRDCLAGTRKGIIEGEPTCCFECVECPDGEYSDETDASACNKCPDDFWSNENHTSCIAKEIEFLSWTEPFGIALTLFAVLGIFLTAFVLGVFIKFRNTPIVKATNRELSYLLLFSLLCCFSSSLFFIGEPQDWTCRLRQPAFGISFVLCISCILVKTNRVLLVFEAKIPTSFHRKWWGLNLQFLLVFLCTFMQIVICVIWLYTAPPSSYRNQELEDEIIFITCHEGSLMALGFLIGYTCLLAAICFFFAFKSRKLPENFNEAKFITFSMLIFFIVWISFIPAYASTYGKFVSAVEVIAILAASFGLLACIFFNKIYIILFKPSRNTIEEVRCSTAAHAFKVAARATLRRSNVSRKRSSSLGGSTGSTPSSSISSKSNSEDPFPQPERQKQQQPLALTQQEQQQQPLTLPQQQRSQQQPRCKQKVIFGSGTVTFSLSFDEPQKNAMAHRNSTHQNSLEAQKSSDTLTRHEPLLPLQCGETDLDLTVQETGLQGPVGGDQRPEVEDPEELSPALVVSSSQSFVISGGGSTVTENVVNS
Test: Negative allosteric modulator activity at human recombinant calcium sensing receptor expressed in HEK cells
Criterion: IC50 strictly less than 50 nM. Met: MET. Not met: NOT MET.

{"columns": ["compound", "class label"],
 "data": [
  ["CC(C)(Cc1ccc2ccccc2c1)NC[C@@H](O)COc1cccc(Cl)c1C#N", "MET"],
  ["CC(C)(CC1Cc2ccccc2C1)NC[C@@H](O)COc1cc(C2CC3CC2C2C(C(=O)O)C32)cc(F)c1F (mixture of isomers)", "NOT MET"],
  ["Cc1ccc(CC(C)(C)NC[C@@H](O)CO[C@H](C)c2ccccc2C2CC3CC2C2C(C(=O)O)C32)cc1Cl (mixture of isomers)", "MET"],
  ["CC(C)(CN1Cc2ccccc2C1=O)NC[C@@H](O)COc1cc(C2CC3CC2C2C(C(=O)O)C32)ccc1C#N (mixture of isomers)", "NOT MET"],
  ["Cc1ccc(CC(C)(C)NC[C@@H](O)COc2cccc(C3CC4CC3C3C(C(=O)O)C43)c2)cc1F (mixture of isomers)", "NOT MET"],
  ["Cc1ccc(CC(C)(C)NC[C@@H](O)COc2cc(C3CC4CC3C3C(C(=O)O)C43)ccc2C#N)cc1F (mixture of isomers)", "MET"],
  ["CC(C)(CC1Cc2ccccc2C1)NC[C@@H](O)COc1cc(CCC(=O)O)cc(F)c1F [RONACALERET]", "NOT MET"],
  ["CC(C)(CC1Cc2ccccc2C1)NC[C@@H](O)COc1cccc(C2CC3CC2C2C(C(=O)O)C32)c1 (mixture of isomers)", "NOT MET"]
]}

Recorded values, source ChEMBL document CHEMBL1781979.
